Test Method Notes: Rat PK&BBB (pharmacokinetics and brain penetration)
Type: in vivo, SD rats
Condition Notes: SD, whole blood, PO 30 mg/kg
Readout Name: Tmax
Be sure to follow the number with its unit.

In: Record request: Tmax value, item O=C(C1CCN(c2cc(-c3cc(OCCCO)ccc3F)ccn2)CC1)N1N=CCC1c1cc(F)cc(F)c1 (racemic)
Out: 1 h

In: Try this compound too: CC(C)(O)COc1ccc(F)c(-c2ccnc(N3CCC(C(=O)N4N=CC[C@H]4c4cc(F)cc(F)c4)CC3)c2)c1 (racemic)
Out: 6 h

In: Try this compound too: O=C(C1CCN(c2cc(-c3cc(OCCCO)ccc3F)ccn2)CC1)N1N=CC[C@H]1c1cc(F)cc(F)c1 (racemic)
Out: 1.17 h
